Tested on: IGROV1 ovarian
Experiment: NCI-60 one-dose screen, 48 h (100 = growth as untreated, 0 = no growth, -100 = all killed)
Details: 10 µM unless noted
About 83,000 compounds went through this panel and 20% of them were active in at least one assay; those are over-represented in the sample as a whole.
# growth >= 30% gives 1, anything below gives -1

C#CCOc1cccc(Nc2ncnc3c(NC(=O)C=C)cccc23)c1 ... 1
CN1C(=O)N(C)C2Nn3c(s/c(=C\c4ccc(C(F)(F)F)cc4)c3=O)=NC21 (stereo not given) ... 1

(Q) Is growth for "COc1ccc(-c2nn(-c3ccccc3)cc2/C=C2/SC(=S)N(C)C2=O)cc1" at or above 30%?
(A) 1

(Q) State whether the measured growth reaches 30%, counting equality as reaching it, for CCCCCCCCCCCCCCCC(N)c1ccccc1 (stereo not given)
(A) -1

---

System: UO-31 renal
Test: NCI-60 one-dose screen, 48 h (100 = growth as untreated, 0 = no growth, -100 = all killed)
Details: 10 µM unless noted
Compounds without any hit were thinned out: in the full panel of roughly 83,000, 20% have a hit.
Assay Readout: growth (%)
Please state the figure in %; there is no need to write the unit.

Below are worked cases with known answers.
CC1(C)CC[C@]2(c3nnc(-c4ccncc4)o3)CC[C@H]3C(=CC[C@H]4[C@@]3(C)CC[C@H]3C(C)(C)C(=O)CC[C@]43C)[C@@H]2C1 ... 51
COc1cccc(/C=C/C(=O)c2cc3c(N)c(C(=O)Nc4ccccc4)sc3nc2C)c1 ... 11.8
Oc1c(Cl)cc(Cl)c2ccc(Cn3cc(-c4cc(F)cc(F)c4)nn3)nc12 ... 68.3
COc1ccc2cc(C(=O)c3coc4ccc(O)cc34)ccc2c1 ... 68.4

Given the compound "N=C(N)c1ccc(-c2ccc(-c3ccc(F)cc3)o2)o1" and test system UO-31 renal, the measured growth is 15.5

Entry "CS(=O)(=O)C1=CN(CCO)C(=O)N2CCCN=C12" , UO-31 renal data, growth value: 78

# lookup: "CC(=O)n1nc(C(=O)OC(C)C)c2cc(C)c(C)cc21" on UO-31 renal, growth = 94.4

// growth (UO-31 renal) for N#CC1CCc2c(c(-c3cn[nH]c3C(F)(F)F)nc3c(F)cc4[nH]ncc4c23)C1 (centres undefined) = 56.8

Summary line: "Cn1c(=O)c2c(nc(NC3=NS(=O)(=O)c4ccccc43)n2CC(=O)N2CCc3ccccc32)n(C)c1=O" , UO-31 renal, reported growth = 75.9

---

Test system: ACHN renal
Assay: NCI-60 one-dose screen, 48 h (100 = growth as untreated, 0 = no growth, -100 = all killed)
Conditions: 10 µM unless noted
This is part of a sample that, as a whole, favours compounds with a hit. Of some 83,000 tested, about 20% had one in any assay.
This section presents compounds with their documented growth values.
Quick reminder: number only, in %, skip the unit.

Short answer for COc1cc2c(c(OC)c1OC)C(=O)CC(c1cccc(NC(=O)c3ccc(Br)cc3)c1)O2 (stereo not given) : growth was 52.4

Lab book: growth of "CC(=O)N(N=Nc1ccccc1)c1cccc2ccccc12" noted as 8.59

Query "COc1cc(CNS(=O)(=O)c2ccc(C)cc2)ccc1OCc1cn(-c2ccc(F)cc2)nn1" yields growth of 93.2

"Cc1c(-c2nc3ccc(F)cc3c(=O)[nH]2)c2ccccc2n1C" has a reported growth of 36

Summary for this compound, "Cc1cc(=O)[nH]c2c(C#N)cnn12" : growth is 98.8

Just so you know, measured growth for "Cn1c(=O)c2[nH]c(N/N=C/c3ccccc3Br)nc2n(C)c1=O" came out at 105

---

Tested on: SK-MEL-28 melanoma
Experiment: NCI-60 one-dose screen, 48 h (100 = growth as untreated, 0 = no growth, -100 = all killed)
Settings: 10 µM unless noted
Description: Growth inhibition of the SK-MEL-28 human tumor cell line is measured as a screen for anti-cancer activity. Cells are grown in 96 well plates and exposed to the test compound for 48 hours. Compounds are tested at a single concentration, which is 10^-5 M for most compounds. The reported endpoint is percent growth (GI% or GIPRCNT), where numbers from 0 - 100% represent growth inhibition, and numbers from -100% - 0 represent cell death. For example, a value of 40 represents 60% growth inhibition. […]
Compounds without any hit were thinned out: in the full panel of roughly 83,000, 20% have a hit.
growth vs 90%: less than gives MET; not less than gives NOT MET.

Consider the following illustrative entries.
COC(=O)c1c2c(c(C)[n+]([O-])c1C)C(=O)C=C(NCc1ccc(OC)cc1)C2=O ... MET
COc1ccc(-c2nnc(-c3ccc4c(c3)nc(-c3ccncc3)n4C3CCCCC3)o2)cc1 ... NOT MET
COC(=O)CNC(=O)[C@H](Cc1ccccc1)NCc1ccncc1 ... NOT MET

Lab note: next molecule to report on.
(Q) Hi there! Is growth for "CCN(c1ccc(Cl)cc1)c1nc(-c2ccc([N+](=O)[O-])cc2)cs1" below 90%, do you know?
(A) NOT MET

---

System: SK-MEL-2 melanoma
Test: NCI-60 one-dose screen, 48 h
Settings: 10 µM unless noted
This is part of a sample that, as a whole, favours compounds with a hit. Of some 83,000 tested, about 20% had one in any assay. Calls of active or inactive are those of the source. How the source made its calls: active means growth percent below 10; inactive means the rest.
Permitted responses: class 1 = active, class 0 = inactive

Use the examples below as a reference point.
CN(C)C1CCN(Cc2ccc(NC(=O)c3cncc(C#Cc4cnc(N)c5ncccc45)c3)cc2C(F)(F)F)CC1 ... class 0
N=C(N)c1ccc(-c2ccc(-c3ccc(F)cc3)o2)o1 ... class 0
CN(C)CCNc1nc2c3cc(Cl)ccc3nn2c2ccccc12 ... class 0
O=C1N(Cc2ccccc2Cl)c2ccccc2C12NN=C(c1cccc(Cl)c1)S2 (stereo not given) ... class 1

API: the following record is the query input.
(Q) For this molecule, state the assay outcome: "O=C1Nc2ccccc2/C1=C\c1nc(-c2ccccc2F)n2ccccc12"
(A) class 1

---

Tested on: SN12C renal
Assay: NCI-60 one-dose screen, 48 h (100 = growth as untreated, 0 = no growth, -100 = all killed)
Conditions: 10 µM unless noted
The panel holds about 83,000 compounds, 20% with a hit somewhere; the sample as a whole holds those more often.
Threshold 60%. growth below it: rule met. growth at it or above: rule not met.

CCn1cc(C(=O)N/N=C/c2cccs2)c(=O)c2cc(F)c(N3CCNC(C)C3)c(F)c21 (stereo not given) ... rule not met

Okay, next one:
(Q) Just wondering, is growth of "O=C1c2cc(Cl)ccc2S(=O)(=O)c2c(NCCCNCCO)nc3ccccc3c21" below 60%?
(A) rule met

---

Tested on: MOLT-4 leukemia
Experiment: NCI-60 one-dose screen, 48 h (100 = growth as untreated, 0 = no growth, -100 = all killed)
Details: 10 µM unless noted
Compounds without any hit were thinned out: in the full panel of roughly 83,000, 20% have a hit.
Binning of growth into classes: group A = under 10%, group B = from 10% up to 90%, group C = 90% and over

CCOC(=O)CSc1ncnc2c1c(-c1ccccc1)c(-c1ccccc1)n2-c1ccc(C)cc1 ... group B
Cc1nc2ncnc(Cl)c2[nH]1 ... group C
CC(=O)OC[C@]12CCC(C)(C)C[C@H]1[C@@]1(O)[C@H](O)C[C@@H]3[C@@]4(C)CCCNC(C)(C)[C@@H]4CC[C@@]3(C)[C@]1(C)CC2 ... group C
CCN1CC(=O)N(/N=C2\C(=O)Nc3ccccc32)C1=S ... group C
O=C(CSc1nc2ccc([N+](=O)[O-])cc2[nH]1)Nc1cccc(C(F)(F)F)c1 ... group A

(Q) In plain terms, what class is "Cc1ccc(CNc2ccc(Cl)cc2NCc2ccc(C)c(O)c2)cc1O" ?
(A) group A

(Q) Category of "C=C1C(=O)O[C@H]2[C@H]1CC/C(COC(=O)CSCCSCC(=O)OC/C1=C/CC[C@@]3(C)O[C@H]3[C@H]3OC(=O)C(=C)[C@@H]3CC1)=C\CC[C@@]1(C)O[C@@H]21" , please.
(A) group A

(Q) Sort "Cc1ccccc1Cn1cnc2ccc(-c3cc(NC(=O)c4ccc(NC5CCN(C)CC5)cc4)n[nH]3)cc21" into one of the categories.
(A) group B

(Q) Which class holds "COc1ccc(-c2csc(NC(=O)CSc3nc(-c4ccccc4)cc(=O)[nH]3)n2)cc1" ?
(A) group B

(Q) Into which category would you place "COc1ccc(-c2csc(N(C(=O)N3CCN(c4cc5c(cc4F)c(=O)c(C(=O)O)cn5C4CC4)CC3)c3ccccc3)n2)cc1" ?
(A) group B

(Q) // bin(item) where item = "CCCCCCCCn1ccc2cc(NC(=O)Cn3cc(CN4CCCCC4)nn3)ccc21"
(A) group A

(Q) Hi there! Could you help me figure out the category for "Cc1nc(-c2ccccc2)cc2c(O)c(C(=O)NN)[nH]c(=O)c12" please?
(A) group C

(Q) Each compound maps to one class by growth. Which class for "Brc1ccc2[nH]cc(-c3nonc3-c3c[nH]c4ccccc34)c2c1" ?
(A) group B

(Q) Would you mind sorting "COC(=O)c1cc(-c2ccc(OC)cc2)[nH]c1N/N=C/c1c(Cl)cccc1Cl" into the appropriate category?
(A) group B

(Q) Dear colleague, I would appreciate it if you could identify the bin for "O=S(=O)(NCCCNc1nccc(-c2c(-c3ccc(F)c(O)c3)nc3occn23)n1)c1ccccc1" and reply at your convenience.
(A) group B

(Q) Field: class (growth) — entry: CC1=C(CCC(C)N(C)Cc2ccc(OCCCN3CCCC3)cc2)C(C)(C)CCC1 (centres undefined)
(A) group A

(Q) Class (by measured growth) for "O=C(O)CNC1=C(Cl)C(=O)c2ccccc2C1=O"
(A) group C

(Q) Category lookup for the compound "COc1cc(CNS(=O)(=O)c2ccc(C)cc2)ccc1OCc1cn(-c2ccc(Br)cc2)nn1"
(A) group C
